experiment: Stability test (relationship between melting start temperature and stability) of lansoprazole enantiomer crystals; type: physicochemical; conditions: crystal, stability test at 60° C. for one month
measure_name: 60° C. one month residual ratio (%)

[[record]]
compound = "Cc1c(OCC(F)(F)F)ccnc1C[S@@+]([O-])c1nc2ccccc2[nH]1 [Reference Example 3, reference compound]"
measure_name = "60° C. one month residual ratio"
value_reported = 89.8

[[record]]
compound = "Cc1c(OCC(F)(F)F)ccnc1C[S@@+]([O-])c1nc2ccccc2[nH]1 [Reference Example 6, reference compound]"
measure_name = "60° C. one month residual ratio"
value_reported = 93.8

[[record]]
compound = "Cc1c(OCC(F)(F)F)ccnc1C[S@@+]([O-])c1nc2ccccc2[nH]1 [Example 1]"
measure_name = "60° C. one month residual ratio"
value_reported = 99.7

[[record]]
compound = "Cc1c(OCC(F)(F)F)ccnc1C[S@@+]([O-])c1nc2ccccc2[nH]1 [Example 2]"
measure_name = "60° C. one month residual ratio"
value_reported = 100

[[record]]
compound = "Cc1c(OCC(F)(F)F)ccnc1C[S@@+]([O-])c1nc2ccccc2[nH]1 [Example 6]"
measure_name = "60° C. one month residual ratio"
value_reported = 99.2

